System: Escherichia coli TOP10
Experiment: shrunken log2 fold change of peptide-encoding DNA abundance (4.5 h post-induction vs induction); higher = less antimicrobial activity (less host growth inhibition)
Conditions: time post-induction: 4.5 h; library: site-saturation at positions 5, 18, 19, 20
Cut-off -0.04 on shrunken log2 fold change, inclusive. At or above means 1.0; below means 0.0.

Some solved cases for reference:
query sequence: RRIRRRPPRLPRPRPRPHCWPRP
cat: 1.0
--
query sequence: RRIRNRPPRLPRPRPRPDPMPRP
cat: 0.0
--
query sequence: RRIRSRPPRLPRPRPRPGDDPRP
cat: 1.0
--
query sequence: RRIRVRPPRLPRPRPRPGYYPRP
cat: 0.0

Decide: is the reported value of shrunken log2 fold change for RRIRGRPPRLPRPRPRPRVIPRP equal to or greater than -0.04? 1.0

Dear colleague, could you confirm whether RRIRPRPPRLPRPRPRPHGDPRP has shrunken log2 fold change at or above -0.04? 0.0

Is the recorded value of shrunken log2 fold change equal to or greater than -0.04 for this sequence? RRIRCRPPRLPRPRPRPCALPRP 0.0

====

Listed next: entries and their corresponding shrunken log2 fold change.
Tested on: Escherichia coli TOP10
Assay: shrunken log2 fold change of peptide-encoding DNA abundance (4.5 h post-induction vs induction); higher = less antimicrobial activity (less host growth inhibition)
Conditions: time post-induction: 4.5 h; library: site-saturation at positions 5, 18, 19, 20
// return just the number, without any unit appended

Example entries and their recorded answers appear below.
query sequence: RRIRLRPPRLPRPRPRPNPFPRP
shrunken log2 fold change: -0.334

query sequence: RRIRIRPPRLPRPRPRPVGKPRP
shrunken log2 fold change: -0.118

query sequence: RRIRSRPPRLPRPRPRPRPSPRP
shrunken log2 fold change: 0.439

Now turn to the next sequence.
Return shrunken log2 fold change for the following sequence: RRIRVRPPRLPRPRPRPQMFPRP -0.0716

====

Test system: Escherichia coli TOP10
Assay: shrunken log2 fold change of peptide-encoding DNA abundance (4.5 h post-induction vs induction); higher = less antimicrobial activity (less host growth inhibition)
Details: time post-induction: 4.5 h; library: site-saturation at positions 5, 18, 19, 20
experimental readout: shrunken log2 fold change
No unit in the answer, please; the number alone is enough.

Some solved entries appear below for comparison.
query sequence: RRIRFRPPRLPRPRPRPRIHPRP
shrunken log2 fold change: -0.262
--
query sequence: RRIRDRPPRLPRPRPRPEWMPRP
shrunken log2 fold change: 0.764
--
query sequence: RRIRPRPPRLPRPRPRPYPLPRP
shrunken log2 fold change: -0.861
--
query sequence: RRIRMRPPRLPRPRPRPHMFPRP
shrunken log2 fold change: -0.222
--
query sequence: RRIRSRPPRLPRPRPRPDHQPRP
shrunken log2 fold change: -0.263

For the sequence RRIRDRPPRLPRPRPRPMQRPRP , report shrunken log2 fold change. -0.00663

Entry RRIRIRPPRLPRPRPRPMWLPRP needs its shrunken log2 fold change filled in; supply it. -0.233

For the sequence RRIRIRPPRLPRPRPRPLKFPRP , give its reported shrunken log2 fold change. -0.373

Please indicate shrunken log2 fold change recorded for RRIRFRPPRLPRPRPRPRTSPRP 0.223

Return shrunken log2 fold change for the following sequence: RRIRARPPRLPRPRPRPLDPPRP 0.244

Please look at this sequence and report its shrunken log2 fold change: RRIRGRPPRLPRPRPRPYNGPRP -0.0131

Kindly indicate its recorded shrunken log2 fold change. Item: RRIRARPPRLPRPRPRPRYCPRP -0.15

Hello, please tell me recorded shrunken log2 fold change for this one: RRIRRRPPRLPRPRPRPYCIPRP -0.264

====

Test system: Escherichia coli TOP10
Assay: shrunken log2 fold change of peptide-encoding DNA abundance (4.5 h post-induction vs induction); higher = less antimicrobial activity (less host growth inhibition)
Settings: time post-induction: 4.5 h; library: site-saturation at positions 5, 18, 19, 20
experimental readout: shrunken log2 fold change
Give the figure by itself; no unit, no explanation.

query sequence: RRIRFRPPRLPRPRPRPQMSPRP
quantitative readout: -0.204

Quick one: give measured shrunken log2 fold change for RRIRARPPRLPRPRPRPKLSPRP 0.138

Note shrunken log2 fold change for the sequence shown: RRIRVRPPRLPRPRPRPHVYPRP -0.13

Provide only the value of recorded shrunken log2 fold change for RRIRYRPPRLPRPRPRPYSGPRP -1

Tell me its shrunken log2 fold change given RRIRMRPPRLPRPRPRPDWVPRP as the entry. 0.0143

Retrieve shrunken log2 fold change measured for RRIRFRPPRLPRPRPRPQNHPRP and print it. -0.619

Report measured shrunken log2 fold change; entry is RRIRLRPPRLPRPRPRPCCEPRP 0.812

State its shrunken log2 fold change: RRIRHRPPRLPRPRPRPYPQPRP -0.546

Recall and state the measured shrunken log2 fold change for RRIRQRPPRLPRPRPRPLHDPRP . -0.346

====

Test system: Escherichia coli TOP10
Assay: shrunken log2 fold change of peptide-encoding DNA abundance (4.5 h post-induction vs induction); higher = less antimicrobial activity (less host growth inhibition)
Conditions: time post-induction: 4.5 h; library: site-saturation at positions 5, 18, 19, 20
experimental readout: shrunken log2 fold change
Just the number, please, no unit attached.

Below: 2 sequences and their reported shrunken log2 fold change.
query sequence: RRIRNRPPRLPRPRPRPYYKPRP
quantitative readout: -1.46
--
query sequence: RRIRNRPPRLPRPRPRPCCPPRP
quantitative readout: -0.0502

Under Escherichia coli TOP10: report shrunken log2 fold change of RRIRARPPRLPRPRPRPYQTPRP . 0.00502

Would you please give the reported shrunken log2 fold change of RRIRIRPPRLPRPRPRPLASPRP with Escherichia coli TOP10? 0.0396

Recall the reported shrunken log2 fold change of RRIRRRPPRLPRPRPRPAKKPRP on Escherichia coli TOP10 and write it down. 1.04

Send back Escherichia coli TOP10 shrunken log2 fold change of RRIRNRPPRLPRPRPRPDQDPRP only. -0.00104

Please indicate recorded shrunken log2 fold change of RRIRARPPRLPRPRPRPAGWPRP measured with Escherichia coli TOP10. 1.56

====

System: Escherichia coli TOP10
Assay: shrunken log2 fold change of peptide-encoding DNA abundance (4.5 h post-induction vs induction); higher = less antimicrobial activity (less host growth inhibition)
Conditions: time post-induction: 4.5 h; library: site-saturation at positions 5, 18, 19, 20
Please use criterion met whenever shrunken log2 fold change is not below -0.06, and criterion not met whenever it is.

query sequence: RRIRYRPPRLPRPRPRPILMPRP
cat: criterion met
//
query sequence: RRIRRRPPRLPRPRPRPENKPRP
cat: criterion not met
//
query sequence: RRIRNRPPRLPRPRPRPIIQPRP
cat: criterion not met
//
query sequence: RRIRARPPRLPRPRPRPIYNPRP
cat: criterion not met
//
query sequence: RRIRARPPRLPRPRPRPAQYPRP
cat: criterion met
//
query sequence: RRIRLRPPRLPRPRPRPSLVPRP
cat: criterion met

Please tell me: is the sequence RRIRVRPPRLPRPRPRPCSRPRP at or over -0.06 in terms of shrunken log2 fold change? criterion not met

Form field: shrunken log2 fold change at least -0.06? Entry: RRIRNRPPRLPRPRPRPPYEPRP criterion not met

Is shrunken log2 fold change at least -0.06? Consider RRIRQRPPRLPRPRPRPYAPPRP criterion not met

Dear colleague, could you confirm whether RRIRLRPPRLPRPRPRPFRNPRP has shrunken log2 fold change at or above -0.06? criterion not met

Does RRIRPRPPRLPRPRPRPMKGPRP have a reported shrunken log2 fold change of at least -0.06? criterion met

====

Measured shrunken log2 fold change, listed per entry for reference.
Tested on: Escherichia coli TOP10
Experiment: shrunken log2 fold change of peptide-encoding DNA abundance (4.5 h post-induction vs induction); higher = less antimicrobial activity (less host growth inhibition)
Conditions: time post-induction: 4.5 h; library: site-saturation at positions 5, 18, 19, 20
Lab note: record the figure alone, no unit after it.

query sequence: RRIRQRPPRLPRPRPRPTTEPRP
shrunken log2 fold change: 0.26

Supply recorded shrunken log2 fold change for RRIRKRPPRLPRPRPRPAPSPRP here. 0.748

Could you please provide reported shrunken log2 fold change for RRIRQRPPRLPRPRPRPQPEPRP ? Thanks! -0.0839

Please indicate shrunken log2 fold change recorded for RRIRLRPPRLPRPRPRPFYKPRP -0.349

====

Each record here notes measured shrunken log2 fold change.
Test system: Escherichia coli TOP10;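 further: peptides expressed intracellularly from a pBAD plasmid library in pooled LB shake-flask culture, induced with 0.3% L-arabinose, DNA abundance read by NGS, three biological replicates, DESeq2 with apeglm shrinkage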
Experiment: shrunken log2 fold change of peptide-encoding DNA abundance (4.5 h post-induction vs induction); higher = less antimicrobial activity (less host growth inhibition)
Conditions: time post-induction: 4.5 h; library: site-saturation at positions 5, 18, 19, 20
Keep it simple and answer with nothing but the number.

query sequence: RRIRCRPPRLPRPRPRPAKNPRP
experimental readout: shrunken log2 fold change
quantitative readout: 0.00465

Give the reported value of shrunken log2 fold change for this record: RRIRARPPRLPRPRPRPVTQPRP 0.0996

Please report shrunken log2 fold change for the following sequence: RRIRQRPPRLPRPRPRPYAQPRP -0.214

Tell us which shrunken log2 fold change value is on record for RRIRPRPPRLPRPRPRPNLQPRP 0.0751

Fill in reported shrunken log2 fold change for this entry: RRIRNRPPRLPRPRPRPCPMPRP 0.151

Determine its reported shrunken log2 fold change: RRIRFRPPRLPRPRPRPRYVPRP -0.105

Please report the measured shrunken log2 fold change for RRIRIRPPRLPRPRPRPNIIPRP -0.719

Recall and state the measured shrunken log2 fold change for RRIRVRPPRLPRPRPRPFWVPRP . 0.421
